This collection of values is drawn from patent US6274715A.

# Test system: ESCHERICHIA COLI H560
# assay-comment: In vitro antibacterial activity, MIC, BHI agar dilution
# Assay type: cell-based
# condition-set: E. coli H560, unit assumed
measurement-type: MIC

| compound | measurement-target | measurement-type | val |
| --- | --- | --- | --- |
| CCC1OC(=O)C(C)C(=O)C(C)C(OC2OC(C)CC(N(C)C)C2O)C(C)(OC)CC(C)C2=NC(COCSC)CN3C(=O)OC1(C)C3C2C (stereo not drawn) | ESCHERICHIA COLI H560 | MIC | > 100 µg/mL |
| CC[C@H]1OC(=O)[C@H](C)C(=O)[C@H](C)[C@@H](O[C@@H]2O[C@H](C)C[C@H](N(C)C)[C@H]2O)[C@](C)(OC)C[C@@H](C)C2=NC3CN(C(C)=O)CC3N3C(=O)O[C@@]1(C)[C@H]3[C@H]2C (stereo partly drawn) | ESCHERICHIA COLI H560 | MIC | > 100 µg/mL |
| CC[C@H]1OC(=O)[C@H](C)C(=O)[C@H](C)[C@@H](O[C@@H]2O[C@H](C)C[C@H](N(C)C)[C@H]2O)[C@](C)(OC)C[C@@H](C)C2=N[C@H](COCc3cccc(Cl)c3)CN3C(=O)O[C@@]1(C)[C@H]3[C@H]2C | ESCHERICHIA COLI H560 | MIC | > 100 µg/mL |
